Attribution: patent US20260035367A1

biological target: Recombinant human PKC-theta (His-tagged 362-706) (Homo sapiens, UniProt Q04759); construct: Recombinant human PKC-theta (His-tagged 362-706); His; test: PKC-theta inhibition assay (HTRF KinEASE kit); assay type: biochemical; conditions: ATP 6.5 μM; STK substrate 525 nM; binned A to H; read-out: PKC-theta HTRF pIC50 (binned) (converted)
Sequence (Q04759 362-706): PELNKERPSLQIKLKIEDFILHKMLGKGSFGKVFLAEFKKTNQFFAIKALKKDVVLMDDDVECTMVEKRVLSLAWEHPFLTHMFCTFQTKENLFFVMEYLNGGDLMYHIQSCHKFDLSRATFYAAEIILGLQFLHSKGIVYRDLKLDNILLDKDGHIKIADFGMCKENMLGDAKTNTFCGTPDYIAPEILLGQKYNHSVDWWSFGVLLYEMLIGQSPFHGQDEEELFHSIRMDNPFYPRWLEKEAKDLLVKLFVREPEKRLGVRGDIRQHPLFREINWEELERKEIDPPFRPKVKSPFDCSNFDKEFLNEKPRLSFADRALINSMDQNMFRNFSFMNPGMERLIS
measure: IC50

Hi team, please reply with IC50 for each item in this list.
1. O=c1[nH]c2nccc(-c3cc(Cl)cc(N4CCNCC4)c3)c2[nH]1
2. CC1(C)C(=O)Nc2nccc(-c3cc(C(F)(F)F)cc(N4CC5CC(C4)N5)n3)c21

Result block:
1: 316 to 1000 nM; 2: 31.6 to 100 nM

// each listed compound needs a value for IC50
1. C[C@@H]1CCN(c2cc(C(F)(F)F)cc(-c3ccnc4c3C(C)(C)C(=O)N4)n2)CCN1
2. CCC1(O)C(=O)Nc2nccc(-c3cc(C(F)(F)F)cc(N4CCN[C@@H](C)C4)n3)c21 (stereo partly drawn)
3. CN(C)Cc1cccc(-c2ccnc3[nH]c(=O)[nH]c23)c1
4. C[C@@H](O)[C@H]1CN(c2cc(C(F)(F)F)cc(-c3ccnc4c3C(C)(C)C(=O)N4)n2)CCN1
5. CC[C@@H]1CNCCN1c1cc(Cl)cc(-c2ccnc3c2[C@](C)(O)C(=O)N3)n1 (single isomer, unassigned)
6. C[C@@]1(O)C(=O)Nc2nccc(-c3cc(C(F)(F)F)cc(N4CC5CC(C4)N5)n3)c21 (single isomer, unassigned)
7. CCC1(C)C(=O)Nc2nccc(-c3cc(Cl)cc(N4CCN[C@@H](C)C4)n3)c21 (stereo partly drawn)

Result block:
10 to 31.6 nM
3.16 to 10 nM
316 to 1000 nM
3.16 to 10 nM
0.316 to 1 nM
10 to 31.6 nM
1 to 3.16 nM

Parameter requested: IC50. Apply to each item below.
1. O=c1[nH]c2nccc(-c3cccc(N4CCNCC4)n3)c2[nH]1
2. O=C1Nc2nccc(-c3cc(C(F)(F)F)cc(N4CCNCC4)n3)c2C12CCCC2
3. CC[C@@]1(C)C(=O)Nc2nccc(-c3cc(C(C)(F)F)cc(N4CCN[C@@H](C)C4)n3)c21 (single isomer, unassigned)
4. CC[C@]1(C)C(=O)Nc2nccc(-c3cc(C(F)(F)F)cc(N4CCNC[C@H]4C)n3)c21 (single isomer, unassigned)
5. CC1(C)C(=O)Nc2nccc(-c3cccc(S(=O)(=O)N4CCNCC4)c3)c21

Result block:
1: 100 to 316 nM; 2: 10 to 31.6 nM; 3: 3.16 to 10 nM; 4: 0.316 to 1 nM; 5: > 1000 nM

Query block: Enter reported IC50 observed with Recombinant human PKC-theta (His-tagged 362-706) (Homo sapiens, UniProt Q04759) for CN1CCN(c2cccc(-c3ccnc4[nH]c(=O)[nH]c34)c2)CC1
Result block: > 1000 nM

---

Please respond with reported IC50 for every item in the list.
molecular target: Recombinant human PKC-theta (His-tagged 362-706) (Homo sapiens); construct: Recombinant human PKC-theta (His-tagged 362-706); His; experiment: PKC-theta inhibition assay (HTRF KinEASE kit); format: biochemical; details: ATP 6.5 μM; STK substrate 525 nM; binned A to H; read-out: PKC-theta HTRF pIC50 (binned) (converted)

Some compounds with recorded IC50:
{"compound": "CC[C@]1(C)C(=O)Nc2nccc(-c3cc(C(C)(F)F)cc(N4CCN[C@@H](C)C4)n3)c21 (single isomer, unassigned)", "targetEntity": "Recombinant human PKC-theta (His-tagged 362-706) (Homo sapiens)", "IC50": "1 to 3.16 nM"}
{"compound": "C[C@H]1CNCCN1c1cc(F)cc(-c2ccnc3c2C(C)(O)C(=O)N3)c1 (stereo partly shown)", "targetEntity": "Recombinant human PKC-theta (His-tagged 362-706) (Homo sapiens)", "IC50": "10 to 31.6 nM"}
{"compound": "CCC1(O)C(=O)Nc2nccc(-c3cc(C(F)(F)F)cc(N4CCNC[C@H]4C)n3)c21 (stereo partly shown)", "targetEntity": "Recombinant human PKC-theta (His-tagged 362-706) (Homo sapiens)", "IC50": "3.16 to 10 nM"}

Okay, next one:
Query block: Tell me reported IC50 for C[C@@H]1CNC[C@@H](C)N1c1cc(C(F)(F)F)cc(-c2ccnc3c2C(C)(C)C(=O)N3)n1 , tested with Recombinant human PKC-theta (His-tagged 362-706) (Homo sapiens).
Result block: 1 to 3.16 nM
